Origin of measurements: PubChem BioAssay (NCI)

Tested on: LOX IMVI melanoma
Experiment: NCI tumour cell line growth inhibition, 48 h
The entries below are paired with their reported TGI.
// units = µM; emit number, no label

Some solved cases for reference:
- molecule: "COC(=O)C1(Cc2ccc3c(c2)CCC3)Cc2ccccc2C1=O (configuration not stated)"
  measurementUnit: "µM"
  quantitativeReadout: 28.5
- molecule: "Cc1cccc(C(C)C)c1NC(=O)C(=O)C(C(=O)c1ccccc1F)C1OC(=O)c2ccccc21 (configuration not stated)"
  measurementUnit: "µM"
  quantitativeReadout: 32.7
- molecule: "OCCNCCOc1ccc(/C(=C(/Cl)c2ccccc2)c2ccccc2)cc1"
  measurementUnit: "µM"
  quantitativeReadout: 16.6

Consider the additional molecule presented here.
Ask | Missing value: TGI, LOX IMVI melanoma, entry "O=C(CSC(c1ccccc1)c1ccccc1)N/N=C/c1ccco1" . Fill in?
Reply | 5.2
